These entries and their values trace back to patent US20240287154A1.

Consider the following compounds and their measured half-life at 1 µM readings.
# ASSAY SUMMARY: in vitro
# DETAILS: mouse, plasma
Non-standard residues stand in square brackets, D forms with d. Residues, ends and D or L forms follow the SMILES beside them. Phe(4-Br) = N[C@@H](Cc1ccc(Br)cc1)C(=O)O; Nle = CCCC[C@H](N)C(=O)O; Aib = CC(C)(N)C(=O)O
ATTRIBUTE MEASURED: half-life at 1 µM (min)

{"columns": ["COMPOUND", "REPORTED MEASUREMENT"],
 "data": [
  ["CCCC[C@H](NC(=O)[C@@H](NC(=O)[C@@H](N)Cc1ccc(O)cc1)C(C)C)C(=O)N[C@H](C)C(=O)N[C@@H](Cc1c[nH]cn1)C(=O)N[C@@H](Cc1ccccc1)C(=O)N[C@@H](CCCNC(=N)N)C(=O)N[C@H](Cc1c[nH]c2ccccc12)C(=O)N[C@@H](CC(=O)O)C(=O)N[C@@H](CCCNC(=N)N)C(=O)N[C@H](Cc1ccccc1)C(=O)NCC(=O)O [CTX-1127] (H-YV[Nle][dA]HFR[dW]DR[dF]G-OH)", 1.28],
  ["CCCC[C@H](NC(=O)[C@@H](NC(=O)[C@H](N)Cc1ccc(O)cc1)C(C)C)C(=O)N[C@H](C)C(=O)N[C@@H](Cc1c[nH]cn1)C(=O)N[C@@H](Cc1ccccc1)C(=O)N[C@@H](CCCNC(=N)N)C(=O)N[C@H](Cc1c[nH]c2ccccc12)C(=O)N[C@@H](CC(=O)O)C(=O)N[C@@H](CCCNC(=N)N)C(=O)N[C@@H](Cc1ccccc1)C(=O)NCC(=O)O [CTX-1125] (H-[dY]V[Nle][dA]HFR[dW]DRFG-OH)", 141],
  ["CCCC[C@H](NC(=O)[C@@H](NC(=O)[C@@H](N)Cc1ccc(O)cc1)C(C)C)C(=O)N[C@H](C)C(=O)N[C@@H](Cc1c[nH]cn1)C(=O)N[C@@H](Cc1ccccc1)C(=O)N[C@@H](CCCNC(=N)N)C(=O)N[C@H](Cc1c[nH]c2ccccc12)C(=O)N[C@@H](CC(=O)O)C(N)=O [CTX-1108, Tyr-Val-Nle-D-Ala-His-Phe-Arg-D-Trp-Asp] (H-YV[Nle][dA]HFR[dW]D-NH2)", 1.32],
  ["CCCC[C@H](NC(=O)[C@@H](NC(C)=O)C(C)C)C(=O)N[C@H](C)C(=O)N[C@@H](Cc1c[nH]cn1)C(=O)N[C@@H](Cc1ccccc1)C(=O)N[C@@H](CCCNC(=N)N)C(=O)N[C@H](Cc1c[nH]c2ccccc12)C(=O)N[C@@H](CC(=O)O)C(=O)N[C@@H](CCCNC(=N)N)C(=O)N[C@@H](Cc1ccccc1)C(=O)NCC(=O)O [CTX-1121] (Ac-V[Nle][dA]HFR[dW]DRFG-OH)", 138],
  ["CCCC[C@H](NC(=O)[C@@H](NC(=O)[C@@H](N)Cc1ccc(O)cc1)C(C)C)C(=O)NC(C)(C)C(=O)N[C@@H](Cc1c[nH]cn1)C(=O)N[C@@H](Cc1ccccc1)C(=O)N[C@@H](CCCNC(=N)N)C(=O)N[C@H](Cc1c[nH]c2ccccc12)C(=O)N[C@@H](CC(=O)O)C(=O)N[C@@H](CCCNC(=N)N)C(=O)N[C@@H](Cc1ccccc1)C(=O)NCC(=O)O [CTX-1134] (H-YV[Nle][Aib]HFR[dW]DRFG-OH)", 2.77],
  ["CCCC[C@H](NC(=O)[C@@H](NC(=O)[C@@H](N)Cc1ccc(O)cc1)C(C)C)C(=O)N[C@H](C)C(=O)N[C@@H](Cc1c[nH]cn1)C(=O)N[C@@H](Cc1ccc(Br)cc1)C(=O)N[C@@H](CCCNC(=N)N)C(=O)N[C@H](Cc1c[nH]c2ccccc12)C(=O)N[C@@H](CC(=O)O)C(=O)N[C@@H](CCCNC(=N)N)C(=O)N[C@@H](Cc1ccccc1)C(=O)NCC(=O)O [CTX-2120] (H-YV[Nle][dA]H[Phe(4-Br)]R[dW]DRFG-OH)", 2.01],
  ["CCCC[C@H](NC(=O)[C@@H](NC(=O)[C@@H](N)Cc1ccc(O)cc1)C(C)C)C(=O)N[C@H](C)C(=O)N[C@@H](Cc1c[nH]cn1)C(=O)N[C@@H](Cc1ccccc1)C(=O)N[C@@H](CCCNC(=N)N)C(=O)N[C@H](Cc1c[nH]c2ccccc12)C(=O)N[C@@H](CC(=O)O)C(=O)N[C@H](CCCNC(=N)N)C(=O)N[C@@H](Cc1ccccc1)C(=O)NCC(=O)O [CTX-1126] (H-YV[Nle][dA]HFR[dW]D[dR]FG-OH)", 1.61],
  ["CC(C)[C@H](NC(=O)[C@@H](N)Cc1ccc(O)cc1)C(=O)N[C@@H](CCC(=O)O)C(=O)NCC(=O)N[C@@H](Cc1c[nH]cn1)C(=O)N[C@@H](Cc1ccccc1)C(=O)N[C@@H](CCCNC(=N)N)C(=O)N[C@H](Cc1c[nH]c2ccccc12)C(=O)N[C@@H](CC(=O)O)C(=O)N[C@@H](CCCNC(=N)N)C(=O)N[C@@H](Cc1ccccc1)C(=O)NCC(N)=O [CTX-1105] (H-YVEGHFR[dW]DRFG-NH2)", 2.38]
]}
